Test system: ALL-PO;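 further: growth inhibition of ALL-PO cells, read out by a cell viability assay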
Assay: cells
Type: functional, cell-based
Details: Homo sapiens
Description: SANGER: Inhibition of human ALL-PO cell growth in a cell viability assay.
Parameter: IC50. Scope: all listed entries.

# IC50 of `C=CCc1cccc(/C=N/NC(=O)CN2CCN(Cc3ccccc3)CC2)c1O` = > 2560 nM

====

Test system: J-RT3-T3-5;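 further: cell viability assay measuring growth inhibition of human J-RT3-T3-5 cells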
Test: cells
Format: functional, cell-based
Conditions: Homo sapiens
Description: SANGER: Inhibition of human J-RT3-T3-5 cell growth in a cell viability assay.
Readout name: IC50

Known results for compounds:
- Compound: "Cc1ccc(Nc2nccc(N(C)c3ccc4c(C)n(C)nc4c3)n2)cc1S(N)(=O)=O [PAZOPANIB]"
  Experimental target: "J-RT3-T3-5"
  IC50: "> 8 µM"
- Compound: "O=C(c1cc(Cc2n[nH]c(=O)c3ccccc23)ccc1F)N1CCN(C(=O)C2CC2)CC1 [OLAPARIB]"
  Experimental target: "J-RT3-T3-5"
  IC50: "> 5 µM"
- Compound: "CN(C)C/C=C/C(=O)Nc1cc2c(Nc3ccc(F)c(Cl)c3)ncnc2cc1O[C@H]1CCOC1 [AFATINIB]"
  Experimental target: "J-RT3-T3-5"
  IC50: "> 0.5 µM"
- Compound: "O=c1cc(-c2cccc3c2Sc2ccccc2S3)oc(N2CCOCC2)c1 [KU-55933]"
  Experimental target: "J-RT3-T3-5"
  IC50: "> 10 µM"
- Compound: "COc1ccc(C2=N[C@@H](c3ccc(Cl)cc3)[C@@H](c3ccc(Cl)cc3)N2C(=O)N2CCNC(=O)C2)c(OC(C)C)c1 [NUTLIN-3]"
  Experimental target: "J-RT3-T3-5"
  IC50: "> 8 µM"

# IC50 of CO[C@H]1C[C@@H]2CC[C@@H](C)[C@@](O)(O2)C(=O)C(=O)N2CCCC[C@H]2C(=O)O[C@H]([C@H](C)C[C@@H]2CC[C@@H](O)[C@H](OC)C2)CC(=O)[C@H](C)/C=C(\C)[C@@H](O)[C@@H](OC)C(=O)[C@H](C)C[C@H](C)/C=C/C=C/C=C/1C [SIROLIMUS] = 0.00646 µM

# IC50 of C=CCNC1=C2C[C@@H](C)C[C@H](OC)[C@H](O)[C@@H](C)/C=C(\C)[C@H](OC(N)=O)[C@@H](OC)/C=C\C=C(/C)C(=O)NC(=CC1=O)C2=O [TANESPIMYCIN] = > 1 µM

# IC50 of `CC(=O)O[C@@H]1[C@@H](OC(C)=O)[C@@H](O)[C@H](Oc2c(-c3ccc(O)cc3)oc3cc(O)cc(O)c3c2=O)O[C@H]1C` = > 10 µM

# IC50 of Cc1cc([C@@H](C)Nc2ccccc2C(=O)O)c2nc(N3CCOCC3)cc(=O)n2c1 [AZD-6482] = > 5.12 µM

====

Parameter: IC50. Scope: all listed entries.
Test system: NCI-H1793
Assay: cells
Format: functional, cell-based, Homo sapiens
Conditions: Homo sapiens, NCI-H1793
Description: SANGER: Inhibition of human NCI-H1793 cell growth in a cell viability assay.

Known results for molecules:
- Input smiles: "C=CCNC1=C2C[C@@H](C)C[C@H](OC)[C@H](O)[C@@H](C)/C=C(\\C)[C@H](OC(N)=O)[C@@H](OC)/C=C\\C=C(/C)C(=O)NC(=CC1=O)C2=O"
  IC50: "0.385 µM"
- Input smiles: "O=C(NOCC1CC1)c1ccc(F)c(F)c1Nc1ccc(I)cc1Cl"
  IC50: "> 10 µM"
- Input smiles: "C[C@]1(O)C[C@@H](c2nc(-c3ccc4ccc(-c5ccccc5)nc4c3)c3c(N)nccn32)C1"
  IC50: "> 2.56 µM"
- Input smiles: "COC(=O)CNC(=O)C(=O)OC"
  IC50: "2950 µM"
- Input smiles: "CN(C)C/C=C/C(=O)Nc1cc2c(Nc3ccc(F)c(Cl)c3)ncnc2cc1O[C@H]1CCOC1"
  IC50: "> 0.5 µM"

# IC50 of `Nc1ccn([C@@H]2O[C@H](CO)[C@@H](O)[C@@H]2O)c(=O)n1` = > 2 µM

====

System: D-336MG
Assay: cells
Assay type: functional, cell-based, Homo sapiens
Settings: Homo sapiens, D-336MG
Description: SANGER: Inhibition of human D-336MG cell growth in a cell viability assay.
Parameter: IC50. Scope: all listed entries.

Known results for compounds:
- Compound: "C=CCNC1=C2C[C@@H](C)C[C@H](OC)[C@H](O)[C@@H](C)/C=C(\\C)[C@H](OC(N)=O)[C@@H](OC)/C=C\\C=C(/C)C(=O)NC(=CC1=O)C2=O [TANESPIMYCIN]"
  Result: "33.1 nM"
- Compound: "Cc1cnc(-c2cnc(NCCNc3ccc(C#N)cn3)nc2-c2ccc(Cl)cc2Cl)[nH]1 [LADUVIGLUSIB]"
  Result: "846 nM"
- Compound: "O=C(NOCC1CC1)c1ccc(F)c(F)c1Nc1ccc(I)cc1Cl [CI-1040]"
  Result: "> 10000 nM"
- Compound: "Cn1cc(C2=C(c3ccc(Cl)cc3Cl)C(=O)NC2=O)c2ccccc21 [SB-216763]"
  Result: "> 10000 nM"
- Compound: "O=c1cc(-c2cccc3c2Sc2ccccc2S3)oc(N2CCOCC2)c1 [KU-55933]"
  Result: "> 10000 nM"
- Compound: "CC(=O)O[C@@]12CO[C@@H]1C[C@H](O)[C@@]1(C)C(=O)[C@H](O)C3=C(C)[C@@H](OC(=O)[C@H](O)[C@@H](NC(=O)OC(C)(C)C)c4ccccc4)C[C@@](O)([C@@H](OC(=O)c4ccccc4)[C@H]21)C3(C)C [DOCETAXEL]"
  Result: "1.69 nM"

Test item CN(c1ncccc1CNc1nc(Nc2ccc3c(c2)CC(=O)N3)ncc1C(F)(F)F)S(C)(=O)=O [PF-00562271] ; D-336MG; reported IC50 was 1860 nM

Test item CS(=O)(=O)CCNCc1ccc(-c2ccc3ncnc(Nc4ccc(OCc5cccc(F)c5)c(Cl)c4)c3c2)o1 [LAPATINIB] ; D-336MG; reported IC50 was > 2000 nM

====

System: IPC-298
Assay: SANGER: Inhibition of human IPC-298 cell growth in a cell viability assay.
Type: functional, cell-based
Parameter: IC50. Scope: all listed entries.
Unit µM implied. Number only.

- Input smiles: "CCC1=C[C@@H]2CN(C1)Cc1c([nH]c3ccccc13)[C@@](C(=O)OC)(c1cc3c(cc1OC)N(C)[C@H]1[C@@](O)(C(=O)OC)[C@H](OC(C)=O)[C@]4(CC)C=CCN5CC[C@]31[C@@H]54)C2"
  Unit abbrev: "µM"
  IC50: 0.0366

# IC50 of `Cn1cncc1[C@@](N)(c1ccc(Cl)cc1)c1ccc2c(c1)c(-c1cccc(Cl)c1)cc(=O)n2C` = 5.82

====

Parameter: IC50. Scope: all listed entries.
Test system: MKN-1;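 further: growth inhibition of human MKN1 cells, read out by a cell viability measurement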
Experiment: cells
Format: functional, cell-based, Homo sapiens
Conditions: Homo sapiens, MKN-1
Description: SANGER: Inhibition of human MKN1 cell growth in a cell viability assay.

Known results for compounds:
- Input smiles: "CN(c1ncccc1CNc1nc(Nc2ccc3c(c2)CC(=O)N3)ncc1C(F)(F)F)S(C)(=O)=O"
  Experimental target: "MKN-1"
  Result: "> 2.56 µM"
- Input smiles: "Cn1cc(C2=C(c3ccc(Cl)cc3Cl)C(=O)NC2=O)c2ccccc21"
  Experimental target: "MKN-1"
  Result: "> 10 µM"
- Input smiles: "O=C1N=C(NCc2cccs2)S/C1=C\\c1ccc2ncccc2c1"
  Experimental target: "MKN-1"
  Result: "> 5 µM"
- Input smiles: "Cc1ccc(Nc2nccc(N(C)c3ccc4c(C)n(C)nc4c3)n2)cc1S(N)(=O)=O"
  Experimental target: "MKN-1"
  Result: "> 8 µM"
- Input smiles: "COC(=O)CNC(=O)C(=O)OC"
  Experimental target: "MKN-1"
  Result: "2190 µM"
- Input smiles: "COc1ccc(C2=N[C@@H](c3ccc(Cl)cc3)[C@@H](c3ccc(Cl)cc3)N2C(=O)N2CCNC(=O)C2)c(OC(C)C)c1"
  Experimental target: "MKN-1"
  Result: "> 8 µM"
- Input smiles: "Cc1cnc(-c2cnc(NCCNc3ccc(C#N)cn3)nc2-c2ccc(Cl)cc2Cl)[nH]1"
  Experimental target: "MKN-1"
  Result: "> 2.56 µM"
- Input smiles: "C=CCc1cccc(/C=N/NC(=O)CN2CCN(Cc3ccccc3)CC2)c1O"
  Experimental target: "MKN-1"
  Result: "> 2.56 µM"

# IC50 of `Cn1cncc1[C@@](N)(c1ccc(Cl)cc1)c1ccc2c(c1)c(-c1cccc(Cl)c1)cc(=O)n2C` = 1.88 µM

# IC50 of `COc1ccc(-c2ccc3c(N4CCOC[C@@H]4C)nc(N4CCOC[C@@H]4C)nc3n2)cc1CO` = > 2 µM

# IC50 of `Nc1ccn([C@@H]2O[C@H](CO)[C@@H](O)[C@@H]2O)c(=O)n1` = 1.74 µM

====

Test system: EB2;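 further: growth inhibition of EB2 cells, read out with a cell viability assay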
Test: cells
Assay type: functional, cell-based
Conditions: Homo sapiens
Description: SANGER: Inhibition of human EB2 cell growth in a cell viability assay.
pIC50: −log10 of the molar value.
Parameter: pIC50. Scope: all listed entries.

Known results for molecules:
- Molecule: "Cc1cc(Nc2cc(N3CCN(C)CC3)nc(Sc3ccc(NC(=O)C4CC4)cc3)n2)n[nH]1 [TOZASERTIB]"
  Experimental target: "EB2"
  pIC50: "< 5.70"
- Molecule: "CN(c1ncccc1CNc1nc(Nc2ccc3c(c2)CC(=O)N3)ncc1C(F)(F)F)S(C)(=O)=O [PF-00562271]"
  Experimental target: "EB2"
  pIC50: "< 5.59"

// next item, pIC50 requested
# pIC50 of CO[C@H]1C[C@@H]2CC[C@@H](C)[C@@](O)(O2)C(=O)C(=O)N2CCCC[C@H]2C(=O)O[C@H]([C@H](C)C[C@@H]2CC[C@@H](O)[C@H](OC)C2)CC(=O)[C@H](C)/C=C(\C)[C@@H](O)[C@@H](OC)C(=O)[C@H](C)C[C@H](C)/C=C/C=C/C=C/1C [SIROLIMUS] = < 7.00
